Measurement Type: MDR1-MDCK efflux ratio

O=C(C1CCC(O)CC1)N1CCCN(c2ccc(F)cc2)CC1 (stereo unspecified) | 4.68
N#Cc1cccc(-c2ccc(=O)n3c2[C@@H]2C[C@@H](CN(Cc4ccc(F)cc4)C2)C3)c1 | 6.11
CCN1CCc2ncnc(N(C)Cc3ccc4c(c3)OCCO4)c2C1 | 0.787

(I) O=C(Nc1ccc(F)cc1F)N1CCn2c1nc1ccccc12
(II) Clc1cc2c(NC3CCCC3)nnc(-c3ccncc3)c2cc1Cl
Ask | Of the pair I and II , name the member with the lesser recorded MDR1-MDCK efflux ratio. Write down the label of the entry you select.
Reply | I

(1) Nc1nncc(-c2ccccc2OC(F)F)n1
(2) CN(C)[C@@H]1CN(C(=O)CCn2cnc3ccccc32)C[C@H]1O
(3) Cc1cccc2sc(NC(=O)C(C)(C)C)nc12
Ask | Ordering: ascending MDR1-MDCK efflux ratio. To answer, arrange all of the labels according to the requested order.
Reply | 3, 1, 2

====

Measurement Type: intrinsic clearance, human liver microsomes (mL/min/kg)

Cc1ccc(OCc2noc(-c3ccsc3)n2)cn1 | 56.1

(A) Cc1cccc(OCCCNc2cc(Cn3c(C)nc4ccccc43)nc(N)n2)c1
(B) Cc1cccc(NC(=O)c2cncn2-c2ccccc2)n1
Ask | Please tell me which of the two, A or B , has the higher reported intrinsic clearance, human liver microsomes value. Write down the label of the entry you select.
Reply | A

====

Measurement Type: MDR1-MDCK efflux ratio

// below: answered compounds
COc1ccc(CN(C)C(=O)Nc2ccccc2)cc1F | 0.669
O=C(CSC1CCCC1)N1CCC(Cn2cccn2)CC1 | 1.6
O=C(c1cccc(CNc2ccc3nccnc3n2)c1)N1CCCCC1 | 37.4

(A) Cc1cc(C)n(-c2cccc(NC(=O)c3ccc(F)c(F)c3)c2)n1
(B) CN(Cc1ccn(-c2ccccc2)n1)C(=O)c1ccc(O)nc1
Ask | Of the pair A and B , name the member with the lesser recorded MDR1-MDCK efflux ratio. Write down the label of the entry you select.
Reply | A
(A: 0.649, B: 30.8)

====

Settings: pH 6.8
Measurement Type: aqueous solubility (µg/mL)

// below: answered compounds
CCC1(O)CN(c2ncccc2C#N)C1 | 22.7
O=C(Nc1ccccc1)Nc1ccccc1 | 3.9

(P) CS(=O)(=O)N1CCC(Nc2ccc3ccc(F)cc3n2)CC1
(Q) COCc1ccccc1CNc1ccc2cc(C#N)ccc2n1
Ask | Of the pair P and Q , name the member with the lesser recorded aqueous solubility. Write down the label of the entry you select.
Reply | Q
(Q: 2.61 µg/mL, P: 52.8 µg/mL)

(P) COc1ncccc1NC(=O)c1cccc(C)n1
(Q) CC(=O)NCCNc1cc(Cl)nn2c(-c3cccc(S(=O)(=O)N(C)C)c3)c(C)nc12
Ask | Of the pair P and Q , name the member with the lesser recorded aqueous solubility. Write down the label of the entry you select.
Reply | P

(P) Cc1cc(NC(=O)Cn2nc(C3CC3)ccc2=O)ccc1Cl
(Q) Cc1nc(C#N)c(C#N)n1Cc1csc(-c2cccs2)n1
Ask | Please tell me which of the two, P or Q , has the higher reported aqueous solubility value. Write down the label of the entry you select.
Reply | Q
(Q: 32.2 µg/mL, P: 0.86 µg/mL)

(1) N#Cc1ccccc1OCc1csc(-c2ncccn2)n1
(2) NC(=O)Cn1cc(-c2ccc(F)cc2)cn1
(3) O=C(c1cc(-c2ccccc2)[nH]n1)N1CCc2ccccc21
(4) CCONC(=O)c1cncn1-c1ccc(F)cc1
(5) CN(C(=O)OC(C)(C)C)c1ccc2ccccc2n1
Ask | Ordering: ascending aqueous solubility. To answer, arrange all of the labels according to the requested order.
Reply | 5, 3, 1, 2, 4
(5: 0.28 µg/mL, 3: 0.84 µg/mL, 1: 12.7 µg/mL, 2: 28 µg/mL, 4: 48 µg/mL)

====

Measurement Type: intrinsic clearance, rat liver microsomes (mL/min/kg)

// below: answered molecules
Cc1cc(Oc2cnccn2)ccc1N | 31.2
CCCCNC(=O)c1cccc2ncccc12 | 28
Cc1cc(NC2CCCC2)nc(C2CCNCC2)n1 | 24.8
Cc1cnc(NCc2ccccc2-n2ccnc2)nc1N(C)C | 486

(P) C[C@@H](c1ccc2ccc(O[C@H]3CC[C@@H](C(F)(F)F)CC3)c(C(F)(F)F)c2c1)N1C2CCC1CC(C(=O)O)C2 (some centres undefined)
(Q) CCOC(=S)SCC(=O)Nc1nc(-c2ccc(C3CCCCC3)cc2)cs1
Ask | Please tell me which of the two, P or Q , has the higher reported intrinsic clearance, rat liver microsomes value. Write down the label of the entry you select.
Reply | Q
(Q: 1390 mL/min/kg, P: 35.6 mL/min/kg)

(P) Cc1ccc(CN(C)c2ncnc3c2cnn3C)o1
(Q) CCc1cc(CNC(=O)Nc2ccc(N3CCSCC3)cc2)on1
(R) CCc1ccccc1NC(=O)CCn1ccnc1-c1ccc2c(c1)OCO2
Ask | Put the items in sequence by intrinsic clearance, rat liver microsomes, from largest down. To answer, arrange all of the labels according to the requested order.
Reply | Q, R, P

(1) CC(C)(CO)NCCCCn1c2ccccc2c2ccccc21
(2) CN1CCN(Cc2noc(Cc3ccccc3)n2)c2ccccc21
(3) O=C(CCc1cc2ccccc2o1)N1CCN(c2cnccn2)CC1
(4) COc1ccc(OC)c(Cn2cnc3cn(C)nc3c2=O)c1
(5) CS(=O)(=O)Nc1ccccc1-c1ccncc1
Ask | Put the items in sequence by intrinsic clearance, rat liver microsomes, from largest down. To answer, arrange all of the labels according to the requested order.
Reply | 2, 3, 1, 5, 4
(2: 2000 mL/min/kg, 3: 497 mL/min/kg, 1: 163 mL/min/kg, 5: 100 mL/min/kg, 4: 50.8 mL/min/kg)

(A) Cc1ccc(C)c(-n2c(S)nnc2-c2ccc(O)cc2)c1
(B) Cn1ncc2cc(-c3ccnc4[nH]ccc34)ccc21
Ask | Of the pair A and B , name the member with the lesser recorded intrinsic clearance, rat liver microsomes. Write down the label of the entry you select.
Reply | A
(A: 164 mL/min/kg, B: 689 mL/min/kg)

====

Details: pH 6.8
Measurement Type: aqueous solubility (µg/mL)

O=C(CCNC(=O)c1ccc(OC(F)(F)F)cc1)N[C@@H]1CCCc2ccccc21 | 4.6
Cc1nc(CN2C[C@@H](c3ccc4c(c3)OCO4)[C@@H]3[C@H]2C2CCN3CC2)co1 | 48.3
CN(C)c1ccc2c(c1)OCCN2C(=O)NCc1cccnc1 | 48.1

(1) COc1ccc2nc(CN3CCC(O)(c4ccc(C)cc4)CC3)ccc2c1
(2) CN(C[C@@H]1COCCO1)S(=O)(=O)Nc1ccc2ccc3ncc(-c4cnn(C)c4)cc3c(=O)c2c1
Ask | Please tell me which of the two, 1 or 2 , has the higher reported aqueous solubility value. Write down the label of the entry you select.
Reply | 1

====

Conditions: pH 6.8
Measurement Type: aqueous solubility (µg/mL)

CCNC(=O)N1CCC2(CCc3ccccc3O2)CC1 | 66.7
Cc1nn(C)c2ncc(C(=O)Nc3ccc4c(c3)CCO4)cc12 | 22.9
Oc1ccc(CN2CCN(c3cccc(Cl)c3)CC2)cc1 | 2.2
CC1(C)CN(C(=O)c2cncc(Br)c2)CCO1 | 83.3
O=C(Nc1cccnc1)c1ccnc(NC(=O)C2CC2)c1 | 40.8
Nc1nc(-c2ccccc2)nc2nc(C3CCCN(CC(=O)N4CCCC4)C3)ccc12 (stereo not given) | 68.6

(A) CC1(c2nnc(-c3ccc4c(c3)OCCO4)o2)CCOCC1
(B) O=C(Nc1nccs1)c1c2c(nc3ccccc13)CCC2
Ask | Of the pair A and B , name the member with the lesser recorded aqueous solubility. Write down the label of the entry you select.
Reply | B

(P) Nc1n[nH]cc1-c1cc(Cl)ccc1Oc1cc(F)c(S(=O)(=O)Nc2cscn2)cc1Cl
(Q) CCN(CC)Cc1cccc(/C=C/c2nc3ccc(F)cc3c(=O)n2-c2ccccc2Cl)n1
Ask | Of the pair P and Q , name the member with the lesser recorded aqueous solubility. Write down the label of the entry you select.
Reply | P

====

Measurement Type: intrinsic clearance, human liver microsomes (mL/min/kg)

// below: answered compounds
Cc1nc(N)c2c(C(F)(F)F)cc(C3CCN(C(=O)Cc4ccc(F)cc4)CC3)nc2n1 | 50.3
NC(=O)c1ccccc1NC(=O)CN1CCCC(c2nc3ccccc3o2)C1 (stereo not drawn) | 126
Cc1ccc(S(=O)(=O)N2CCOc3ccncc32)cc1 | 107

(A) Nc1ccnc2ccc(Oc3ccccc3)cc12
(B) Cc1ccc(C)c(NC(=O)CN2CCCN(c3ccc(C(F)(F)F)cn3)CC2)c1
(C) O=C(NCC#CCN1CCc2ccccc2C1)NCc1ccc(F)cc1
Ask | Put the items in sequence by intrinsic clearance, human liver microsomes, from largest down. To answer, arrange all of the labels according to the requested order.
Reply | B, C, A

(P) CC(C)(C)NC(=O)c1cnc(-c2ccc(Cl)s2)s1
(Q) CCN(CCOC)C(=O)Nc1ccc2occc(=O)c2c1
Ask | Please tell me which of the two, P or Q , has the higher reported intrinsic clearance, human liver microsomes value. Write down the label of the entry you select.
Reply | P

(a) c1ccc(NCc2ccc3c(c2)OCCCO3)nc1
(b) CC(C)C[C@@H](CO)n1cc(-c2ccccc2Cn2cccn2)nn1
(c) Cc1ccc(S(=O)(=O)N2CCCc3ccc(NS(=O)(=O)c4ccc(F)cc4C)cc32)cc1
(d) CCCCCCCCc1ccc(CC[C@](N)(CO)COP(=O)(O)O)cc1
Ask | Ordering: ascending intrinsic clearance, human liver microsomes. To answer, arrange all of the labels according to the requested order.
Reply | d, a, b, c
(d: 7.61 mL/min/kg, a: 66.5 mL/min/kg, b: 101 mL/min/kg, c: 186 mL/min/kg)
